Tested on: Yellow Fever Mosquito "YFM" (Aedes aegypti)
MEASUREMENT PARAMETERS: Yellow Fever Mosquito larvae, 96-well plates

MOLECULE: Cc1ccc(C(C)C)c(NC(=S)NC(=O)NCCCc2ccc(-c3ncn(-c4ccc(OC(F)(F)F)cc4)n3)cc2)c1 [F21]
TARGET SYSTEM: Yellow Fever Mosquito "YFM" (Aedes aegypti)
YFM rating (mortality class): A (80-100)

MOLECULE: Cc1ccc(C(C)C)c(N2C(=O)CS/C2=N\C(=O)NCCc2ccc(-c3ncn(-c4ccc(OC(F)(F)F)cc4)n3)cc2)c1 [F5]
TARGET SYSTEM: Yellow Fever Mosquito "YFM" (Aedes aegypti)
YFM rating (mortality class): A (80-100)

MOLECULE: Cc1ccc(C(C)C)c(N2C(=O)CS/C2=N\C(=O)NCC(C)c2ccc(-c3ncn(-c4ccc(OC(F)(F)F)cc4)n3)cc2)c1 (stereo not drawn) [F10]
TARGET SYSTEM: Yellow Fever Mosquito "YFM" (Aedes aegypti)
YFM rating (mortality class): A (80-100)
